Values compiled from patent US7713994B2.

- assay_target: cyclin B/CDK1 enzyme (Homo sapiens, UniProt P06493)
- Construct: purchased New England BioLabs; host or cells: Sf9 insect cells, recombinant baculovirus
- Sequence (P06493 whole entry): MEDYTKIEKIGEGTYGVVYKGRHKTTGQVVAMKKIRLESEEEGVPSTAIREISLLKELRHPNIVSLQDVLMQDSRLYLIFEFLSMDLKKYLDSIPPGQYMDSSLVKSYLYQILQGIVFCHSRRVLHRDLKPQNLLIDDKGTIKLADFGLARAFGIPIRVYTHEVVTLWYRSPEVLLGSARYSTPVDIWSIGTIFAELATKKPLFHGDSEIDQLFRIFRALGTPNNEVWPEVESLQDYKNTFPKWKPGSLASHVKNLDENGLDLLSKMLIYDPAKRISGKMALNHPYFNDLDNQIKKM
- Sequence (P14635 whole entry partner): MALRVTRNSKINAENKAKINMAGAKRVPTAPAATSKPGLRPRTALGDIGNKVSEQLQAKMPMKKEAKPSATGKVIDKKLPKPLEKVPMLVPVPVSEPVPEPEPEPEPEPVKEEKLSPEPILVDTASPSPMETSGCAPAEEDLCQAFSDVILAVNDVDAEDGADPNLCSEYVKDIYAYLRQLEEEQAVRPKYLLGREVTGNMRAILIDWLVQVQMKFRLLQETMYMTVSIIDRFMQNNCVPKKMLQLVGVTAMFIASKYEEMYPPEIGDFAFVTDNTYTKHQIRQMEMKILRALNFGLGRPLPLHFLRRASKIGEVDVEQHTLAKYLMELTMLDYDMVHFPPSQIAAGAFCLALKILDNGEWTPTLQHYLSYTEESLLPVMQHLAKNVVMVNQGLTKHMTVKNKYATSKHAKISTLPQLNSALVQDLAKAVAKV
- assay_overview: CDK1 ELISA kinase assay (phospho-Rb ser 795 detection)
- Format: biochemical
- condition_parameters: In Vitro Enzyme Assays, read-out: CDK1 IC50
pIC50: −log10 of the molar value.
Examples of molecules with documented pIC50 follow.
measurement_label: pIC50

molecule	measured
CN1CCCC1c1ccc(N/C=C2\C(=O)NC(=O)c3ccc(-c4ccoc4)cc32)cc1 (stereo not shown) [Example 451]	< 4.30
O=C1NC(=O)c2ccc(-n3cccc3)cc2/C1=C/Nc1ccc(CN2CCCCC2)cc1 [Example 74]	< 4.30
O=C1NC(=O)c2ccc(Br)cc2/C1=C/Nc1cc(F)c(N2CCN3CCC[C@H]3C2)c(F)c1 [Example 370]	4.37
CN(C)CCCN/C=C1\C(=O)NC(=O)c2ccc(Br)cc21 [Example 306]	< 4.30
C[C@@H]1CN(c2ccc(N/C=C3\C(=O)NC(=O)c4ccc(I)cc43)cc2F)C[C@H](C)N1 [Example 319]	< 4.30
COCC1CCCN1Cc1ccc(N/C=C2\C(=O)NC(=O)c3ccc(Br)cc32)cc1 (stereo in doubt) [Example 39]	< 4.30
COc1cc(CN/C=C2\C(=O)NC(=O)c3ccc(-c4ccoc4)cc32)cc(O)c1OC [Example 87]	5.92
CN1CCN(c2ccc(N/C=C3\C(=O)NC(=O)c4ccc(-c5ccc(F)cc5)cc43)cc2F)CC1 [Example 290]	< 4.30
O=C1NC(=O)c2ccc(Cl)cc2/C1=C/Nc1ccc(CN2CCCCC2)cc1 [Example 55]	< 4.30
COc1ccc(C(C)N/C=C2\C(=O)NC(=O)c3ccc(Br)cc32)cc1O (stereo not shown) [Example 189]	< 4.30
Nc1ccc(CN/C=C2\C(=O)NC(=O)c3ccc(-c4ccc(F)cc4)cc32)cc1O [Example 134]	< 4.30
O=C1NC(=O)c2ccc(I)cc2/C1=C/NCc1ccc(NC(=O)c2ccccc2)c(O)c1 [Example 334]	< 4.30
O=C1NC(=O)c2ccc(-c3ccsc3)cc2/C1=C/Nc1cc(F)c(N2CCN3CCC[C@H]3C2)c(F)c1 [Example 371]	< 4.30

----------
Examples of compounds with documented pIC50 follow.
- Test system: LoVo
- assay_overview: Cytotoxicity assay (SRB), LoVo
- Assay type: cell-based
- condition_parameters: Homo sapiens, LoVo, 72 h, LoVo cells, 3 days, SRB; read-out: In Vitro Cellular Activity IC50 LOVO
pIC50: −log10 of the molar value.
measurement_label: pIC50

compound	value_qualifier	measured
O=C1NC(=O)c2ccc(N3Cc4ccccc4C3)cc2C1=CNCc1ccc(O)c(O)c1 [Example 610]	=	4.95
O=C1NC(=O)c2ccc(-c3cccc(C(F)(F)F)c3)cc2C1=CNCc1ccc(O)c(O)c1 [Example 773]	=	4.84
CN1CCN(c2ccc(N/C=C3\C(=O)NC(=O)c4ccc(-c5ccoc5)cc43)nc2)CC1 [Example 443]	=	6.07
CN1CCC(Oc2ccc(N/C=C3\C(=O)NC(=O)c4ccc(Br)cc43)cc2)C1 (stereo not shown) [Example 877]	=	5.21
N#CCc1ccc(NC=C2C(=O)NC(=O)c3ccc(-c4ccccc4F)cc32)cc1 [Example 706]	<	4.30
O=C1NC(=O)c2ccc(-c3ccc(CO)cc3)cc2C1=CNCc1ccc(O)c(O)c1 [Example 817]	=	4.46
O=C1NC(=O)c2ccc(-c3ccc(Cl)cc3Cl)cc2C1=CNCc1ccc(O)c(O)c1 [Example 823]	=	4.91
NS(=O)(=O)c1ccc(CNC=C2C(=O)NC(=O)c3ccc(-c4ccccc4Cl)cc32)cc1 [Example 751]	=	5.00
Cc1ncsc1C=Cc1ccc2c(c1)C(=CNCc1ccc(S(N)(=O)=O)cc1)C(=O)NC2=O [Example 659]	<	4.30
CN1CCN(c2ccc(NC=C3C(=O)NC(=O)c4ccc(-c5ccc(C(=O)O)cc5)cc43)cc2)CC1 [Example 685]	=	4.60
N#CCc1ccc(C=Cc2ccc3c(c2)C(=CNCc2ccc(O)c(O)c2)C(=O)NC3=O)cc1 [Example 805]	=	4.44
CN(Cc1ccc(NC=C2C(=O)NC(=O)c3ccccc32)cc1)C1CCCCC1 [Example 577]	=	4.84
CN1CCN(c2ccc(NC=C3C(=O)NC(=O)c4ccc(C=Cc5ccc(S(N)(=O)=O)cc5)cc43)cc2)CC1 [Example 728]	<	4.30
COc1ccc(CNC=C2C(=O)NC(=O)c3ccc(-c4ccc5[nH]ccc5c4)cc32)cc1O [Example 835]	=	4.95
CC1(C)Oc2cc(CN/C=C3\C(=O)NC(=O)c4ccc(Br)cc43)cc(OC(=O)C3CC3)c2O1 [Example 873]	=	4.39
N#Cc1ccc(-c2ccc3c(c2)C(=CNc2ccc(CN4CCCC4)cc2)C(=O)NC3=O)cc1 [Example 839]	<	4.30
Cc1ccc(-c2ccc3c(c2)C(=CNCc2ccc(O)c(O)c2)C(=O)NC3=O)cc1 [Example 781]	=	4.85
CN(C)C[C@@H]1CCCN1Cc1ccc(N/C=C2\C(=O)NC(=O)c3ccc(I)cc32)cc1 [Example 423]	=	5.35
CN(C)C1CCN(Cc2ccc(N/C=C3\C(=O)NC(=O)c4ccc(-c5ccoc5)cc43)cc2)C1 (stereo not shown) [Example 513]	=	5.46
